System: Transitional endoplasmic reticulum ATPase (Homo sapiens) (UniProt P55072)
Sequence (P55072 whole entry, looked up): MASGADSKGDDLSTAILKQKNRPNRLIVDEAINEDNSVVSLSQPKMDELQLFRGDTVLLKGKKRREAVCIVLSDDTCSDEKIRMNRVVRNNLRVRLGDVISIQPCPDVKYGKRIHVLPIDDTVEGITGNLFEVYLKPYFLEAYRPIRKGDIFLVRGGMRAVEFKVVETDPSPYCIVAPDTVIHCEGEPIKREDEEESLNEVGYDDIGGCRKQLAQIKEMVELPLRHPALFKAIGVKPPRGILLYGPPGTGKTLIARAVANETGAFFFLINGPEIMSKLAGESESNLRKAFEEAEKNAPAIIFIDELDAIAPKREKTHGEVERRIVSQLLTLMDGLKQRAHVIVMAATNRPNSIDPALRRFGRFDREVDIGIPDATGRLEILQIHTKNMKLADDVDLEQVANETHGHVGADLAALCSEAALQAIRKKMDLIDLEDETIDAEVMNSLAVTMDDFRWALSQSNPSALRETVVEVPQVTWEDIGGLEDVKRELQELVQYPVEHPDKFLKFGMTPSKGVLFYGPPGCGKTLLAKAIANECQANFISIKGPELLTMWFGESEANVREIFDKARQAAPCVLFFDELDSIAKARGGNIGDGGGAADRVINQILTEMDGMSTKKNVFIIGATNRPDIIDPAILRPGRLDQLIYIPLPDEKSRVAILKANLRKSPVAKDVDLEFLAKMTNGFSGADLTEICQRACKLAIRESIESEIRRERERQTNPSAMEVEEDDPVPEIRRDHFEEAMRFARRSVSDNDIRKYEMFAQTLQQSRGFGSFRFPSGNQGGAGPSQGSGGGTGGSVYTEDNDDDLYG
Test Details: p97 ATPase inhibitors, retest, confirmation, biochemical (AID 1517);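 note: 0% = DMSO wells and 100% = wells lacking p97 protein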
Measurement Setup: recombinant p97 ATPase, Kinase-Glo ATP luminescence; at 8 µM
This is one part of the list. Active and inactive are the calls of the source.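 Rule for the calls: active = percent inhibition of p97 ATPase above a set limit, the primary screen's mean plus 3 SD (cut at about 15% in these data); inactive = the rest.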
Answer with one of the outcomes TRUE (active), FALSE (inactive)

The examples below pair each entry with its known result.
I'd appreciate the recorded outcome for "Oc1c(Cl)cc(Cl)c(Cl)c1Cc1c(O)c(Cl)cc(Cl)c1Cl" from this test.
TRUE

I'd appreciate the recorded outcome for "COc1ccc(-c2cc(-c3ccc(N)cc3)nc(N)c2C#N)cc1OC" from this test.
TRUE

I'd appreciate the recorded outcome for "[O-][n+]1onc2c1CCc1[nH]c(-c3ccccc3)nc1-2" from this test.
TRUE

I'd appreciate the recorded outcome for CCC(C)NC(=O)CSC1=Nc2ccccc2C2=NC(CCC(=O)NCc3ccco3)C(=O)N12 (centres undefined) from this test.
FALSE

I'd appreciate the recorded outcome for CC(C(=O)O)n1cnc2sc3c(c2c1=O)CCCC3 (centres undefined) from this test.
FALSE

New cases:
I'd appreciate the recorded outcome for CC1CCCN(C(C(=O)Nc2ccc(C(C)C)cc2)c2ccc3c(c2)OCO3)C1 (centres undefined) from this test.
FALSE

I'd appreciate the recorded outcome for "Cc1[nH][nH]c(=O)c1C(c1ccc(-c2ccc(Cl)cc2)o1)c1c(C)[nH][nH]c1=O" from this test.
FALSE

I'd appreciate the recorded outcome for O=C(OCC1O[C@@H](OC(=O)c2cc(O)c(O)c(O)c2)[C@@H](OC(=O)c2cc(O)c(O)c(O)c2)[C@@H](OC(=O)c2cc(O)c(O)c(O)c2)[C@@H]1OC(=O)c1cc(O)c(O)c(O)c1)c1cc(O)c(O)c(O)c1 (some centres undefined) from this test.
TRUE

###

System: Transitional endoplasmic reticulum ATPase (Homo sapiens)
Test Details: p97 ATPase inhibitors, retest, confirmation, biochemical (AID 1517);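 note: 0% = DMSO wells and 100% = wells lacking p97 protein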
Measurement Setup: recombinant p97 ATPase, Kinase-Glo ATP luminescence; at 8 µM; hits give high values
This is one part of the list.
Could you label it 1 if measured inhibition is 5% or higher, and 0 otherwise?

Does inhibition meet or surpass 5% for "Cc1cc(C)c2cc(CN(Cc3nnnn3Cc3ccc(F)cc3)C3CCCC3)c(=O)[nH]c2c1" ?
0

New cases:
Does inhibition meet or surpass 5% for "COc1ccc2c(c1)C(=C(C#N)C#N)C(=O)N2CCc1ccccc1" ?
1

Does inhibition meet or surpass 5% for "O=C(/C=C/c1ccc(Cl)c([N+](=O)[O-])c1)c1ccc(O)cc1" ?
1

Does inhibition meet or surpass 5% for N#CC1=C(N)Oc2[nH]c(=S)[nH]c(=O)c2C12C(=O)Nc1ccccc12 (stereo unspecified) ?
1

Does inhibition meet or surpass 5% for "C=CCn1c(N)c(C(=O)OCC(C)C)c2nc3ccccc3nc21" ?
1

Does inhibition meet or surpass 5% for "N#Cc1c(N2CCCCC2)nc(N)c2c(N)nc(SCC(=O)O)cc12" ?
1

Does inhibition meet or surpass 5% for "CCOc1c(Br)cc(/C=C2\C(=O)N(CCC#N)N=C2C)cc1OC" ?
1

Does inhibition meet or surpass 5% for "C=CCn1c(=S)[nH]c2scc(-c3ccco3)c2c1=O" ?
1

Does inhibition meet or surpass 5% for "CCOC(=O)N1CCC(c2cc(=O)n(-c3ccccc3)[nH]2)CC1" ?
1

Does inhibition meet or surpass 5% for O=C(c1[nH]ncc1-c1ccc(Cl)cc1)C1CO1 (stereo unspecified) ?
1

Measured values drawn from PubChem BioAssay AID1517 for this set.
